- test-protocol: plasma pharmacokinetics after oral dosing in C57BL/6 mouse
- Format: in vivo
- test-conditions: 30 mg/kg, 30 mpk oral in 0.4% methylcellulose, n = 3, read-out: AUC (0-24 hr)
recorded-endpoint: AUC(0-t) (µM·h)
Please give a number only; it is taken to be in µM·h.

AUC(0-t) measured on CC[C@H]1CN(c2nc(N)c(C(N)=O)nc2Cl)CCN1C1CCN(Cc2ccc(Cl)cc2)CC1 [SCH 546738] = 12.6

###

- target-desc: CXCR3 (Homo sapiens)
- test-protocol: [125I]hCXCL10 competition binding (SPA, Ba/F3 membranes)
- Design: expressed in transfected cells; host or cells: mouse pro-B Ba/F3 cells (vector pME18Sneo), membrane preparation
- test-conditions: [125I-hIP-10] 100 pM; 3 hr reaction; read-out: IC50
recorded-endpoint: IC50 (nM)
Please give a number only; it is taken to be in nM.

IC50 measured on CC[C@H]1CN(c2nc(N)c(C(N)=O)nc2Cl)CCN1C1CCN(Cc2ccc(Cl)cc2)CC1 [SCH 546738] = 1

###

- target-desc: CXCR3 (Homo sapiens, UniProt P49682)
- Sequence (P49682 whole entry): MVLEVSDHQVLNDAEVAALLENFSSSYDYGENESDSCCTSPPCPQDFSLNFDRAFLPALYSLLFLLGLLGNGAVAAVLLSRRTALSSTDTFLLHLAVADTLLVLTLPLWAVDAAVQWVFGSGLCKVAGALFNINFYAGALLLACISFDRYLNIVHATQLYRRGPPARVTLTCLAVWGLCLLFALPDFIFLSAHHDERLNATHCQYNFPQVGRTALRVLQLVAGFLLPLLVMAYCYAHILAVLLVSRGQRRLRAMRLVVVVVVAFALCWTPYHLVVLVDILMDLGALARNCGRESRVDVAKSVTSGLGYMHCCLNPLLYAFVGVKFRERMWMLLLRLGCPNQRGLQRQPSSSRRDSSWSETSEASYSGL
recorded-endpoint: Ki (nM)
Please give a number only; it is taken to be in nM.

Ki measured on CC[C@H]1CN(c2nc(N)c(C(N)=O)nc2Cl)CCN1C1CCN(Cc2ccc(Cl)cc2)CC1 = 0.4

###

- target-desc: rat CXCR3 (Rattus norvegicus, UniProt Q9JII9)
- Construct: expressed in transfected cells; host or cells: mouse pro-B Ba/F3 cells (vector pME18Sneo), membrane preparation
- Sequence (Q9JII9 whole entry): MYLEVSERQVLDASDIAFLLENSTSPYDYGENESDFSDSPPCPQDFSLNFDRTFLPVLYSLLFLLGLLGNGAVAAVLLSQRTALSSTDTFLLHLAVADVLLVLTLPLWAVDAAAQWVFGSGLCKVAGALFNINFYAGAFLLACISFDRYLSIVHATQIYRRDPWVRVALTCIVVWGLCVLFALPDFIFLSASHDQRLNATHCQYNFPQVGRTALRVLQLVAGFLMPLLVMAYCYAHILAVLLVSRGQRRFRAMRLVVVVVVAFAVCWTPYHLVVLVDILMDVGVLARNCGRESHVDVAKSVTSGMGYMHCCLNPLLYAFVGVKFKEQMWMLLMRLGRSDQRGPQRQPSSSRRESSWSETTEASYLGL
- test-protocol: [125I]hCXCL10 competition binding (SPA, Ba/F3 membranes)
- test-conditions: read-out: IC50 (nM) (CXCL10)
recorded-endpoint: IC50 (nM)
Please give a number only; it is taken to be in nM.

Entry CC[C@H]1CN(c2nc(N)c(C(N)=O)nc2Cl)CCN1C1CCN(Cc2ccc(Cl)cc2)CC1 : IC50 on rat CXCR3 (Rattus norvegicus, UniProt Q9JII9) = 4.2

###

- target-desc: CXCR3 (Homo sapiens, UniProt P49682)
- test-protocol: [125I]hCXCL11 competition binding (SPA, Ba/F3 membranes)
- Set-up: expressed in transfected cells; host or cells: mouse pro-B Ba/F3 cells (vector pME18Sneo), membrane preparation
- test-conditions: [125I-hI-TAC] 50 pM; 3 hr reaction; read-out: IC50
recorded-endpoint: IC50 (nM)
Please give a number only; it is taken to be in nM.

IC50 measured on CC[C@H]1CN(c2nc(N)c(C(N)=O)nc2Cl)CCN1C1CCN(Cc2ccc(Cl)cc2)CC1 = 1.8
